The values you see were collected from BindingDB's records for doi:10.1021/jm030452x.

compounds and their reported EC50
# Target Under Test: Melanocortin receptor 1 (Rana pipiens)
# Assay Text: Effective concentration required for maximum agonist response at melanocortin 1 receptor from frog skin.
Write your answer as a measured quantity: the number, then the unit.

[
  {
    "Chemical String": "C[C@@H](O)[C@H](NC(=O)[C@H]1CSSC[C@H](NC(=O)[C@H](N)Cc2ccccc2)C(=O)N[C@@H](Cc2cnc[nH]2)C(=O)N[C@@H](Cc2ccccc2)C(=O)N[C@@H](CCCNC(=N)N)C(=O)N[C@H](Cc2c[nH]c3ccccc23)C(=O)N1)C(N)=O",
    "EC50": "0.01 µM"
  }
]

Lab note: next compound to report on.
Recorded result, `C[C@H](O)[C@@H](NC(=O)[C@H]1CSSC[C@H](NC(=O)[C@H](N)Cc2ccccc2)C(=O)N[C@@H](Cc2cnc[nH]2)C(=O)N[C@@H](Cc2ccc(Cl)cc2)C(=O)N[C@@H](CCCNC(=N)N)C(=O)N[C@H](Cc2c[nH]c3ccccc23)C(=O)N1)C(N)=O` , EC50: 0.03 µM

###

# Target Under Test: Melanocyte-stimulating hormone receptor (Rana pipiens)
# Assay Text: Inhibition of 1 nM alpha melanocortin stimulating hormone (MSH) from frog skin
// values below are reported pIC50
Just the number, please; pIC50 means minus log10 of the concentration in mol/L.

# example entries with known answers
[
  {
    "Chemical String": "C[C@@H](O)[C@H](NC(=O)[C@H]1NC(=O)[C@H]([C@@H](C)O)NC(=O)[C@H](CCCNC(=N)N)NC(=O)[C@@H](Cc2c[nH]c3ccccc23)NC(=O)[C@H](Cc2ccc(I)cc2)NC(=O)[C@@H](NC(=O)[C@H](N)Cc2ccccc2)CSSC1(C)C)C(N)=O",
    "pIC50": 7.00
  },
  {
    "Chemical String": "C[C@H](O)[C@@H](NC(=O)[C@H]1CSSC[C@H](NC(=O)[C@@H](N)Cc2ccccc2)C(=O)N[C@@H](Cc2c[nH]cn2)C(=O)N2Cc3ccccc3C[C@H]2C(=O)N[C@@H](CCCN=C(N)N)C(=O)N[C@H](Cc2c[nH]c3ccccc23)C(=O)N1)C(N)=O",
    "pIC50": 6.00
  },
  {
    "Chemical String": "C[C@@H](O)[C@H](NC(=O)[C@H]1NC(=O)[C@H](CO)NC(=O)[C@H](CCCNC(=N)N)NC(=O)[C@@H](Cc2c[nH]c3ccccc23)NC(=O)[C@H](Cc2ccc(O)cc2)NC(=O)[C@@H](NC(=O)[C@H](N)Cc2ccccc2)CSSC1(C)C)C(N)=O",
    "pIC50": 6.00
  },
  {
    "Chemical String": "C[C@@H](O)[C@H](NC(=O)[C@H]1NC(=O)[C@H](Cc2c[nH]c3ccccc23)NC(=O)[C@H](CCCN=C(N)N)NC(=O)[C@@H](Cc2c[nH]c3ccccc23)NC(=O)[C@H](Cc2ccccc2)NC(=O)[C@@H](NC(=O)[C@H](N)Cc2ccccc2)CSSC1(C)C)C(N)=O",
    "pIC50": 6.00
  }
]

Note: attention shifts to another entry.
Summary: `C[C@@H](O)[C@H](NC(=O)[C@H]1NC(=O)[C@H](Cc2c[nH]c3ccccc23)NC(=O)[C@H](CCCN=C(N)N)NC(=O)[C@@H](Cc2c[nH]c3ccccc23)NC(=O)[C@H](Cc2ccc(O)cc2)NC(=O)[C@@H](NC(=O)[C@H](N)Cc2ccccc2)CSSC1(C)C)C(N)=O` , Melanocyte-stimulating hormone receptor (Rana pipiens), pIC50 = 6.00

###

Reported log10(EC50) values are given for each entry in this list.
# Target Under Test: Melanocortin receptor 1 (Rana pipiens)
# Assay Text: Effective concentration required for maximum agonist response at melanocortin 1 receptor from frog skin.
// stored as log10 of EC50 expressed in µM

[
  {
    "Chemical String": "C[C@@H](O)[C@H](NC(=O)[C@@H]1CSSCC[C@H](NC(=O)[C@H](N)Cc2ccccc2)C(=O)N[C@@H](Cc2cnc[nH]2)C(=O)N[C@H](Cc2ccccc2)C(=O)N[C@@H](CCCNC(=N)N)C(=O)N[C@@H](Cc2c[nH]c3ccccc23)C(=O)N1)C(N)=O",
    "log10(EC50)": -3.52
  },
  {
    "Chemical String": "C[C@@H](O)[C@H](NC(=O)[C@@H]1CCCCNC(=O)C[C@H](NC(=O)[C@H](N)Cc2ccccc2)C(=O)N[C@@H](Cc2cnc[nH]2)C(=O)N[C@H](Cc2ccccc2)C(=O)N[C@@H](CCCNC(=N)N)C(=O)N[C@@H](Cc2c[nH]c3ccccc23)C(=O)N1)C(N)=O",
    "log10(EC50)": -4.00
  },
  {
    "Chemical String": "C[C@@H](O)[C@H](NC(=O)[C@@H]1CSSC[C@H](NC(=O)[C@H](N)Cc2ccccc2)C(=O)N[C@@H](Cc2cnc[nH]2)C(=O)N[C@@H](Cc2ccc(F)cc2)C(=O)N[C@@H](CCCNC(=N)N)C(=O)N[C@H](Cc2c[nH]c3ccccc23)C(=O)N1)C(N)=O",
    "log10(EC50)": 0.00
  },
  {
    "Chemical String": "C[C@@H](O)[C@H](NC(=O)[C@@H]1CSSC[C@H](NC(=O)[C@H](N)Cc2ccccc2)C(=O)N[C@@H](Cc2cnc[nH]2)C(=O)N[C@@H](Cc2cccc3ccccc23)C(=O)N[C@@H](CCCNC(=N)N)C(=O)N[C@H](Cc2c[nH]c3ccccc23)C(=O)N1)C(N)=O",
    "log10(EC50)": 0.70
  },
  {
    "Chemical String": "C[C@@H](O)[C@H](NC(=O)[C@H]1CSSC[C@H](NC(=O)[C@@H](N)Cc2ccccc2)C(=O)N[C@@H](Cc2cnc[nH]2)C(=O)N[C@H](Cc2ccccc2)C(=O)N[C@@H](CCCNC(=N)N)C(=O)N[C@H](Cc2c[nH]c3ccccc23)C(=O)N1)C(N)=O",
    "log10(EC50)": 0.48
  },
  {
    "Chemical String": "C[C@@H](O)[C@H](NC(=O)[C@@H]1CCSSC[C@H](NC(=O)[C@H](N)Cc2ccccc2)C(=O)N[C@@H](Cc2cnc[nH]2)C(=O)N[C@H](Cc2ccccc2)C(=O)N[C@@H](CCCNC(=N)N)C(=O)N[C@@H](Cc2c[nH]c3ccccc23)C(=O)N1)C(N)=O",
    "log10(EC50)": 0.00
  }
]

Data point: `C[C@@H](O)[C@H](NC(=O)[C@H]1NC(=O)[C@H](Cc2c[nH]c3ccccc23)NC(=O)[C@H](CCCNC(=N)N)NC(=O)[C@@H](Cc2ccccc2)NC(=O)[C@H](Cc2cnc[nH]2)NC(=O)[C@@H](NC(=O)[C@H](N)Cc2ccccc2)CSSC1(C)C)C(N)=O` ; log10(EC50) = -1.00
